This listing pairs binders with measured protection from staurosporine, viability EMAX, MLP29.
target: native mouse MET on living mouse cells (mouse, UniProt P16056 25-1379); experiment: cell-based or functional assay
// note: answer is a bare numeric in %

binder: chimeric llama-human IgG1 mAb 76H10 (antibody, V domains shown) VH: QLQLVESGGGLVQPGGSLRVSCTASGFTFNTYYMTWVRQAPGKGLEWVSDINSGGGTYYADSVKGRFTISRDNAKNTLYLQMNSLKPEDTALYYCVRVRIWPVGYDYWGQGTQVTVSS VL: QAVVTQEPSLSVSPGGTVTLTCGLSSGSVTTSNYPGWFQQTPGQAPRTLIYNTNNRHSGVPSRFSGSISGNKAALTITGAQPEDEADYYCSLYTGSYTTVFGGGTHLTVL
resultUnits: %
testValue: 27.2

binder: chimeric llama-human IgG1 mAb 71C3 (antibody, V domains shown) VH: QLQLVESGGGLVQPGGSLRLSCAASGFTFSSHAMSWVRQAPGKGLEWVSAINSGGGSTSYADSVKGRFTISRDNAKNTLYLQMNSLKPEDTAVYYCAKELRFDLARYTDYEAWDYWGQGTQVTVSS VL: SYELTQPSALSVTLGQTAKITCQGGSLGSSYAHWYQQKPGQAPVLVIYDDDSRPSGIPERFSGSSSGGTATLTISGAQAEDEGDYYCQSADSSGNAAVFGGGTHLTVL
resultUnits: %
testValue: 51.3

binder: chimeric llama-human IgG1 mAb 71G3 (antibody, V domains shown) VH: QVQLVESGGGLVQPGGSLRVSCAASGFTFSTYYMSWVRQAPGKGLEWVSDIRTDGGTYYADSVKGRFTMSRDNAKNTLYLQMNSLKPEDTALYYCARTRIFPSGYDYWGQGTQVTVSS VL: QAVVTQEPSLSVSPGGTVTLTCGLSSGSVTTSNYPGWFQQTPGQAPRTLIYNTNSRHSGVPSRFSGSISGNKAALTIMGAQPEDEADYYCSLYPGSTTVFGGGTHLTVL
resultUnits: %
testValue: 62.3

binder: chimeric llama-human IgG1 mAb 76G7 (antibody, V domains shown) VH: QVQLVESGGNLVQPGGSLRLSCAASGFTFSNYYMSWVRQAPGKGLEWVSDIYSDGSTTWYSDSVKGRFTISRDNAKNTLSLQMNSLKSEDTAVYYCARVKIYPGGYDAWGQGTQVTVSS VL: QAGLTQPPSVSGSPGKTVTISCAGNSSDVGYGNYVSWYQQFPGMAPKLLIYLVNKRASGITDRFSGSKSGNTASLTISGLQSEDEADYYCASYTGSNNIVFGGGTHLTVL
resultUnits: %
testValue: 50.2

Query: Look up and state reported protection from staurosporine, viability EMAX, MLP29 for chimeric llama-human IgG1 mAb 71G12 (antibody, V domains shown) VH: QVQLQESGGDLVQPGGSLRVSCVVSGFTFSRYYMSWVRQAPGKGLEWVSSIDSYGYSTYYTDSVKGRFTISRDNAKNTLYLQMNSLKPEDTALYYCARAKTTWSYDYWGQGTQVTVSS VL: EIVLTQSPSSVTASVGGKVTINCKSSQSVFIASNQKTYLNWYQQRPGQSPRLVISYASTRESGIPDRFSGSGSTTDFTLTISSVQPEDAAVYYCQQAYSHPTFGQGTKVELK
Result: 39.7

Provenance of the data: patent US20210024639A1
